# Test system: PC-3 prostate
# ASSAY_EXPLANATION: NCI tumour cell line growth inhibition, 48 h
PROPERTY_LABEL: TGI (µM)

O=C(CCl)N1c2ccccc2Sc2c1ccc1ccccc21: 4.45
CN(C)CCOc1ccc2c(c1)C/C(=C/c1ncc([N+](=O)[O-])n1C)C2=O: 18.3
Cc1cc2c(c(C=NCc3ccccc3)c1)OC1(C=C2)Oc2ccccc2C(=O)N1C (stereo unspecified): 75.3

---

# Test system: SR leukemia
# ASSAY_EXPLANATION: NCI tumour cell line growth inhibition, 48 h
Entries and their TGI
PROPERTY_LABEL: TGI (µM)

CCCCCCCCCCCCCCCCCCCCCC(=O)Nc1ccn(C2OC(CO)C(O)C2O)c(=O)n1 (stereo not given): 26.8
O=C1C(Cl)=C(Nc2cccc(O)c2)C(=O)N1c1cc(Cl)c(Cl)cc1Cl: 59.7
COc1ccc2oc3cccc(NCCN(C)C)c3c(=O)c2c1: 27.1
COc1ccc(NC(=O)/C(CC2=Nc3ccc([N+](=O)[O-])cc3NC2O)=N\NC(=O)C[N+](C)(C)C)c(OC)c1 (stereo not given): 48.6
